The origin of these recorded values is patent US20240309056A1.

# MEASURED_ON: T1, ubiquitin mutein 211883
# T1 construct: also called Affilin-211883
# PROCEDURE_SUMMARY: SPR (Biacore 3000), ligand immobilised via C-terminal Cys on CM-5, ubiquitin mutein in solution, Langmuir 1:1
OBSERVED_PROPERTY: Kd
Respond with a number, then the unit of measure.

Provide each entry's Kd from the list below.
1. affinity ligand 187028 (designed binder) NAARSDEAQYSAWAEIEALPNLTEMQKDQFIWSLMFDPSVSKEVLGEAQKLNDSQAPK
2. affinity ligand 187029 (designed binder, Artificial mosaic protein of Protein A-like structure) NAAMDDFAQYSAWAEIEALPNLTEMQKDQFIWSLMFDPSVSKEVLGEAQKLNDSQAPK

Result block:
1: 66.2 nM; 2: 52.9 nM
